molecular target: DRB1*01:01 (Homo sapiens, UniProt P01903+P01911, A100R/D57E/F55L/F60I/F76Y/I96L/L162R/M171V/P40L/Q125E/R42F/V115G/Y59C); test: biochemical
Where a SMILES comes first, the peptide text is derived from it.
quantity.measured: pIC50
Answers are plain numbers, as −log10 of the molar value.

Below, each entry is followed by its recorded pIC50 result.
CC(C)C[C@H](NC(=O)[C@H](C)NC(=O)[C@@H](NC(=O)[C@H](Cc1ccccc1)NC(=O)[C@H](Cc1c[nH]c2ccccc12)NC(=O)[C@@H](N)CO)[C@@H](C)O)C(=O)N[C@H](C(=O)N[C@@H](CCC(N)=O)C(=O)N[C@@H](Cc1c[nH]cn1)C(=O)NCC(=O)N[C@@H](CCCCN)C(=O)N[C@@H](CCC(=O)O)C(=O)N[C@@H](CC(=O)O)C(=O)N[C@@H](CC(C)C)C(=O)N[C@@H](CCCCN)C(=O)O)[C@@H](C)O [Ncl_11] (H-SWFTALTQHGKEDLK-OH); 7.40
CC(C)C[C@H](NC(=O)[C@H](CCC(N)=O)NC(=O)[C@H](CC(N)=O)NC(=O)[C@H](CC(C)C)NC(=O)[C@H](CCCNC(=N)N)NC(=O)[C@H](CC(=O)O)NC(=O)[C@H](CC(C)C)NC(=O)[C@H](CC(C)C)NC(=O)[C@H](CC(C)C)NC(=O)[C@H](CC(C)C)NC(=O)[C@H](C)NC(=O)[C@H](CC(C)C)NC(=O)[C@H](C)NC(=O)[C@H](C)NC(=O)[C@@H](N)CC(=O)O)C(=O)O [Ncl_44] (H-DAALALLLLDRLNQL-OH); 5.04

Pending compound:
# pIC50 (compound: CC[C@H](C)[C@H](NC(=O)[C@H](CCCNC(=N)N)NC(=O)[C@H](CC(C)C)NC(=O)[C@H](Cc1c[nH]cn1)NC(=O)CNC(=O)[C@@H](N)CCCNC(=N)N)C(=O)N[C@@H](C)C(=O)NCC(=O)N[C@@H](Cc1c[nH]cn1)C(=O)N[C@@H](Cc1c[nH]cn1)C(=O)N[C@@H](CC(C)C)C(=O)NCC(=O)N[C@@H](CCCNC(=N)N)C(=O)N[C@@H](CS)C(=O)N[C@@H](CC(=O)O)C(=O)O [Mem_30] (H-RGHLRIAGHHLGRCD-OH) ) is 7.23

====

molecular target: DRB1*13:02 (Homo sapiens, UniProt P01903+P01911, A100E/A169T/K41T/L162R/M171V/P40S/Q125H/Q178H/Q39Y/Q99D/R42S/S66N/T262R/V115G/W38E/Y61H); assay: biochemical; format: binding
Sequence (P01903 26-254 limits assumed, other chains not shown): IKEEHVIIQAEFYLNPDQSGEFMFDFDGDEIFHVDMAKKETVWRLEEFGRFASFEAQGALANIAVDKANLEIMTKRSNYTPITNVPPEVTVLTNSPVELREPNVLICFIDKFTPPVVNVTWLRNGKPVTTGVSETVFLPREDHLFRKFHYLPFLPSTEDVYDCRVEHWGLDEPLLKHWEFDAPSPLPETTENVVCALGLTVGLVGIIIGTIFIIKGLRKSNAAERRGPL
pIC50: −log10 of the molar value. Where a SMILES comes first, the peptide text is derived from it.
quantity.measured: pIC50

CC[C@H](C)[C@H](NC(=O)[C@H](CCC(N)=O)NC(=O)[C@H](CC(=O)O)NC(=O)[C@@H](N)CC(=O)O)C(=O)NCC(=O)N[C@@H](Cc1ccc(O)cc1)C(=O)N[C@@H](Cc1ccc(O)cc1)C(=O)N[C@@H](CCCNC(=N)N)C(=O)N[C@@H](CCCNC(=N)N)C(=O)N[C@@H](C)C(=O)N[C@H](C(=O)N[C@@H](CCCNC(=N)N)C(=O)N[C@@H](CCCNC(=N)N)C(=O)N[C@H](C(=O)N[C@@H](CCCNC(=N)N)C(=O)O)[C@@H](C)CC)[C@@H](C)O [Ncl_P17] (H-DDQIGYYRRATRRIR-OH); < 4.40
CC[C@H](C)[C@H](NC(=O)[C@H](Cc1c[nH]cn1)NC(=O)[C@H](CCCCN)NC(=O)[C@H](CC(N)=O)NC(=O)[C@H](CC(C)C)NC(=O)[C@H](CC(C)C)NC(=O)[C@@H](NC(=O)[C@@H](NC(=O)[C@H](CCC(N)=O)NC(=O)[C@H](CC(=O)O)NC(=O)[C@H](CCCCN)NC(=O)[C@@H](N)Cc1ccccc1)C(C)C)[C@@H](C)CC)C(=O)N[C@@H](CC(=O)O)C(=O)N[C@@H](C)C(=O)N[C@@H](Cc1ccc(O)cc1)C(=O)O [Ncl_70] (H-FKDQVILLNKHIDAY-OH); 6.73

Now for another entry.
Entry under test: CC[C@H](C)[C@H](NC(=O)CNC(=O)[C@H](CC(=O)O)NC(=O)[C@H](CCCCN)NC(=O)[C@@H](N)CC(N)=O)C(=O)N[C@H](C(=O)N[C@@H](Cc1c[nH]c2ccccc12)C(=O)N[C@H](C(=O)N[C@@H](C)C(=O)N[C@H](C(=O)N[C@@H](CCC(=O)O)C(=O)NCC(=O)N[C@@H](C)C(=O)N[C@@H](CC(C)C)C(=O)N[C@@H](CC(N)=O)C(=O)O)[C@@H](C)O)C(C)C)[C@@H](C)CC [Ncl_26] (H-NKDGIIWVATEGALN-OH) . Its pIC50 was < 4.40
